Data origin: ChEMBL document CHEMBL1629420

experiment: Cytotoxicity against human multi drug resistant subclone KB 8.5 cells after 72 hrs by MTT assay; type: functional, cell-based
measurement.type: pIC50
Answers are plain numbers, as −log10 of the molar value.

Worked cases, answers included:
[[record]]
smiles_string = "O=C1/C(=C/c2ccncc2)CNC/C1=C\\c1ccncc1"
data_value = 5.07

[[record]]
smiles_string = "CCOP(=O)(OCC)N1C/C(=C\\c2ccncc2)C(=O)/C(=C/c2ccncc2)C1"
data_value = 5.29

[[record]]
smiles_string = "CCOP(=O)(OCC)N1C/C(=C\\c2cccnc2)C(=O)/C(=C/c2cccnc2)C1"
data_value = 5.28

[[record]]
smiles_string = "CN1C/C(=C\\c2ccncc2)C(=O)/C(=C/c2ccncc2)C1"
data_value = 5.13

[[record]]
smiles_string = "CCOP(=O)(CCCCN1C/C(=C\\c2cccnc2)C(=O)/C(=C/c2cccnc2)C1)OCC"
data_value = 5.02

[[record]]
smiles_string = "COc1cccc2c1C(=O)c1c(O)c3c(c(O)c1C2=O)C[C@@](O)(C(=O)CO)C[C@@H]3O[C@H]1C[C@H](N)[C@H](O)[C@H](C)O1"
data_value = 5.48

[[record]]
smiles_string = "O=C1/C(=C/c2cccnc2)CNC/C1=C\\c1cccnc1"
data_value = 4.52


# ---- query molecule ----
Problem: Given CN1C/C(=C\c2cccnc2)C(=O)/C(=C/c2cccnc2)C1 , state its recorded pIC50.
Solution: 4.39
